- Tested on: SK-MEL-2 melanoma
- Method Description: NCI tumour cell line growth inhibition, 48 h
We begin with a simple list: items and their reported TGI.

Compound	TGI
C#CCSc1cc(Cl)c(C)cc1S(=O)(=O)Nc1nc2ccccc2o1	43.6 µM
CC(=O)C1C(c2ccc(N(C)C)cc2)c2cc3c(cc2OC1(C)O)OCO3 (stereo not drawn)	> 100 µM
C[n+]1c2cc(N)ccc2cc2ccc(N)cc21	5 µM [middle of 4 runs]
CC(=O)Nc1ccc2c3c(cc(O)c2c1)N(C(=O)CCCCCCC(=O)N1CC(CCl)c2c1cc(O)c1cc(NC(C)=O)ccc21)CC3CCl (stereo not drawn)	< 0.01 µM
CC(=O)OCC1OC(n2c(-c3ccccc3)c(C(C)=O)c(-c3cccc4ccccc34)c(C#N)c2=S)C(OC(C)=O)C(OC(C)=O)C1OC(C)=O (stereo not drawn)	> 100 µM
COc1ccc(N2C(=O)C3c4[nH]c5ccc(Br)cc5c4C4CCC(C(C)(C)C)CC4C3C2=O)cc1 (stereo not drawn)	> 100 µM
S=C(Nc1ccc(-c2nc3ccccc3[nH]2)cc1)Nc1ccc(-c2nc3ccccc3[nH]2)cc1	> 100 µM
Cc1nnc(-c2cccc(-c3ccc(C(=O)NCC4CC4)cc3)c2)o1	> 25 µM
C/C(CC(=O)Nc1ccc(C)c(C)c1)=N\NC(N)=O	> 100 µM
COc1ccc(C2SCC(=O)N2NC(=O)c2ccc(NC(C)=O)cc2)c(OC)c1 (stereo not drawn)	> 100 µM
Cc1cccc(C(C)(C)C)c1NC(=O)CC1C(=O)Nc2ccccc2S1(=O)=O (stereo not drawn)	21.2 µM
Cn1cnc([N+](=O)[O-])c1Sc1nc(N)nc2c1ncn2C1CC(O)C(CO)O1 (stereo not drawn)	25.7 µM
CCOC(=O)N1CCC(=O)C(CNC23CC4CC(CC(C4)C2)C3)C1 (stereo not drawn)	> 100 µM
C/C(CC(O)(/C=N/O)c1ccccc1)=N/O (stereo not drawn)	> 100 µM
CCN(CC)c1ccc(C(O)C2=CC(=O)c3ccccc3C2=O)cc1 (stereo not drawn)	3.71 µM
CCC[CH2][Sn]1([CH2]CCC)[O]CC(CN(C)Cc2ccccc2)[O]1 (stereo not drawn)	15.9 µM
COc1cc(NCCCN=C(N)NC(N)=NC(C)C)c2ncccc2c1	10.1 µM
N#CC(=N)c1ncn(-c2ccc(N)cc2)c1N	> 100 µM
O=C(NCCCO)c1cc(Cl)ccc1O	6.54 µM
CS(=O)(=O)c1ccc(N=C/C=C/Nc2ccc(S(C)(=O)=O)cc2)cc1	> 100 µM
c1ccc(CN2COc3c(ccc4c3OCN(Cc3ccccc3)C4)C2)cc1	> 100 µM
COc1ccccc1C1ON=C(c2ccc([N+](=O)[O-])cc2)N1C12CC3CC(CC(C3)C1)C2 (stereo not drawn)	> 100 µM
COc1cc(-c2cc(=O)c3c(O)c(CC=C(C)C)c(O)cc3o2)ccc1O	> 50 µM
O=C(c1ccccc1)C(CN1CCCCC1)c1ccccc1 (stereo not drawn)	8.73 µM
[N-]=[N+]=NC(c1cn(C2CC(O)C(CO)O2)c(=O)[nH]c1=O)C(Cl)I (stereo not drawn)	> 100 µM
COc1cc(NCCC2CCCCN2)c2ncccc2c1 (stereo not drawn)	> 91.1 µM
Cc1cc(N2CCOCC2)nc(N[C@@H]2CCC[C@H](Nc3ccnc4cc(Cl)ccc34)C2)n1	4.02 µM
O=c1ncc(F)cn1C1OC(CO)C(O)C1O (stereo not drawn)	> 46.5 µM
O=C(Cc1ccc(F)c(F)c1)Nc1cc(C2(C(F)(F)F)CC2)nn1Cc1ccccc1	> 15 µM
C=CCN(C(=O)OC(C)(C)C)[C@H](C)C(=O)N[C@@H](C)C(=O)OC	> 100 µM
C/C1=C/C(=O)O[C@@H]2C[C@@H](CC[C@H](C)/C=C\C=C\CC1)O[C@@](O)([C@@H]1CSC(=O)N1)C2	> 10 µM
CCOC(=O)C1=NN(c2ccc([N+](=O)[O-])cc2)[C@@]2(C)C[C@]3(c4ccccc4)N(c4ccc([N+](=O)[O-])cc4)N=C(C(=O)OCC)N3c3ccccc3N12	> 100 µM
Cc1ccc(O)c(C2=CC(c3cccc(Cl)c3)SC(N)=N2)c1 (stereo not drawn)	38.2 µM
COC(=O)c1cccn1C(=O)n1cccc1	> 100 µM
CC(=O)OC(C)(C)/C(C)=C/C(=O)O[C@H]1C(=O)O[C@@H]2C[C@H]3[C@H](C)C(=O)C(O[C@@H]4O[C@H](CO)[C@@H](O)[C@H](O)[C@H]4O)=C[C@]3(C)[C@H]3[C@@H](O)[C@H](O)[C@@]4(C(=O)O)OC[C@]32[C@@H]14	> 100 µM
C[C@@]12CCC[C@@](C)(C(=O)O)C1CC[C@]13C[C@@](O)(CO)[C@](O)(CCC12)C3 (stereo partly drawn)	> 100 µM
CC(Nc1ccc(S(=O)(=O)N=C(N)N)cc1)c1c2ccccc2nc2ccccc12 (stereo not drawn)	61.9 µM
CC(C)(C)c1cc(-n2c(-c3ccc(Cl)cc3)nc3cc(C(=O)Nc4ccc(Cl)cc4)ccc32)n[nH]1	9.58 µM
